# maps each entry to its maximal percent induction of MET degradation in SNU-5 cells
- TARGET SYSTEM: human MET, cell-surface expressed (human, UniProt P08581 25-1390)
- Sequence (P08581 25-1390): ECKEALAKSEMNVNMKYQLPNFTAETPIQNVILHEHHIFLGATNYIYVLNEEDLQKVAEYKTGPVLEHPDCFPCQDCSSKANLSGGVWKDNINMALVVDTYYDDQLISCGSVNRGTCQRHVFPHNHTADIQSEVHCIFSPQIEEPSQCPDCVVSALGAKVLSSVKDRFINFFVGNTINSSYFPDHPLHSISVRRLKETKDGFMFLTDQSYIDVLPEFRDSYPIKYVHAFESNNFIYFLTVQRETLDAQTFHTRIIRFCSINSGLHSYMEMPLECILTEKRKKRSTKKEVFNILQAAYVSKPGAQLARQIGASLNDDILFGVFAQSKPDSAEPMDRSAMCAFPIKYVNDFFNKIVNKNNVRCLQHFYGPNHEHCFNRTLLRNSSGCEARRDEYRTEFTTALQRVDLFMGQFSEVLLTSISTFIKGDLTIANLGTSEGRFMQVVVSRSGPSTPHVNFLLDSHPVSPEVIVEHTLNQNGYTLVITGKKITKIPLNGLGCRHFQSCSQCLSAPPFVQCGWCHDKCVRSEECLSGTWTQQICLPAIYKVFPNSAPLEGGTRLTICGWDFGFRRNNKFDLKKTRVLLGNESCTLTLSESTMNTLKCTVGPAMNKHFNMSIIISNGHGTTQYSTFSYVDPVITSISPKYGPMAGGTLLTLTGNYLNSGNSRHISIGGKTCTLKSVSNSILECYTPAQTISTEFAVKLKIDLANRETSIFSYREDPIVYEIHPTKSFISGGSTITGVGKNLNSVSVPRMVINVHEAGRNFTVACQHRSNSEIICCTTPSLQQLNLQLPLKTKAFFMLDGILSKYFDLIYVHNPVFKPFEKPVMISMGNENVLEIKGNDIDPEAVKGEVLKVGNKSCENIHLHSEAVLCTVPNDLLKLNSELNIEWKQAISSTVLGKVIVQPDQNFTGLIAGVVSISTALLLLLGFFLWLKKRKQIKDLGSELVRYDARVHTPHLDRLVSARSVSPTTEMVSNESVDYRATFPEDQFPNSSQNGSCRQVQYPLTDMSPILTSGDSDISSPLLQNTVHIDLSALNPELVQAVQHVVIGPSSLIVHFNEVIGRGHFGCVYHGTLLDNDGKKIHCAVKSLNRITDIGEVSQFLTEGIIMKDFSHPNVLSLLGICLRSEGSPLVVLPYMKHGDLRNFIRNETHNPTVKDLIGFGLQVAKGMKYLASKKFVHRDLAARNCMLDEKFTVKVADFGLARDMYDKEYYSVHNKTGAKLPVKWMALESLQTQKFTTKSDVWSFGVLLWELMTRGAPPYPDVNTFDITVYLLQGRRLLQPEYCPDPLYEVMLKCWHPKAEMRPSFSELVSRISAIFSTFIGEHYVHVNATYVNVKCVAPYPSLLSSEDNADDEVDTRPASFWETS
- PROCEDURE TEXT: cell-based or functional assay
Entry rule: numbers only, all in %.

Consider the reported maximal percent induction of MET degradation in SNU-5 cells for these binders:
{"columns": ["BINDER", "ENDPOINT VALUE"],
 "data": [
  ["Ab236C-IgG2 (antibody, V domains shown) VH: QAQLQQSGAELMKPGASVKISCKATGYIFSSYWIEWVKQRPGHGLEWIGEILPGSDFIKYSEKFKGKATFTADTSSNTAYMQLSNLTSEDSAVYYCARPSTVPPDCWGQGTTLTVSA VL: QIVLTQSPAIMSASPGEKVTMTCSASSSVSYMFWYQQKPGSSPRLLIYDTSDLASGVPVRFSGSGSGTSYSLTISRMEAEDAATYYCQQWSNYPYTFGGGTKLEIKR", 69],
  ["Ab235C-IgG2 (antibody, V domains shown) VH: QVQLQQSGAELMKPGASVKISCKATGYTFSNYWIEWVKQRPGHGLEWIGEILPGSDYTKYNEKFKGKATFTADTSSNTAYMQLSSLTSEDSAVYYCARPSTIPPDCWGQGTTLTVSA VL: QIVLTQSPAIMSTSPGEKVTMTCSASSSVNYMFWYQQKAGSSPRLLIYDTFNLASGVPVRFSGSGSGTSYSLTISRMEAEDAATYYCQQWSIYPYTFGGGTKLEIKR", 64],
  ["Ab238C (antibody, human IgG1, V domains shown) VH: QVTLKESGPGILQPSQTLSLTCTFSGFSLSTYGMGVAWIRQPSGKDLEWLANIWWDDVNYSNPSLKNRLTISKDTSNNQVFLQITNVDTAETATYYCARIGTSHIVDAWGQGASVTVSA VL: DIRMTQSPASLSASLGETVNIECLASEDIYSDLAWYQQKPGKSPQLLIYNANTLQNGVPSVFSGSGSGTQYSLKINNLHSEDVATYFCQQYNNYPPTFGGGTKLEIKR", 39],
  ["Ab238C-IgG2 (antibody, V domains shown) VH: QVTLKESGPGILQPSQTLSLTCTFSGFSLSTYGMGVAWIRQPSGKDLEWLANIWWDDVNYSNPSLKNRLTISKDTSNNQVFLQITNVDTAETATYYCARIGTSHIVDAWGQGASVTVSA VL: DIRMTQSPASLSASLGETVNIECLASEDIYSDLAWYQQKPGKSPQLLIYNANTLQNGVPSVFSGSGSGTQYSLKINNLHSEDVATYFCQQYNNYPPTFGGGTKLEIKR", 35],
  ["Ab239C-IgG2 (antibody, V domains shown) VH: EVQLVESGGGLVQPGRSLKLSCAASGFSFTDCYMAWVRQAPTKGLEWVASISSDGGGTYYRDSVKGRFTISRDNARSSLYLEMDSLRSEDTATYYCTTERYYDGTYYGYWYFDFWGPGTMVTVSA VL: GQFTLTQPKSVSGSLRSTITIPCVRSSGDIGDRYVSWYQQRLGRPPLNVIYAADQRPSEVSDRFSGSIDSSSNSASLTITDLQMDDEADYFCQSYDSNIDIVFGGGTKLEIKR", 75]
]}

Short answer for Ab239C (antibody, human IgG1, V domains shown) VH: EVQLVESGGGLVQPGRSLKLSCAASGFSFTDCYMAWVRQAPTKGLEWVASISSDGGGTYYRDSVKGRFTISRDNARSSLYLEMDSLRSEDTATYYCTTERYYDGTYYGYWYFDFWGPGTMVTVSA VL: GQFTLTQPKSVSGSLRSTITIPCVRSSGDIGDRYVSWYQQRLGRPPLNVIYAADQRPSEVSDRFSGSIDSSSNSASLTITDLQMDDEADYFCQSYDSNIDIVFGGGTKLEIKR : maximal percent induction of MET degradation in SNU-5 cells was 36

Lookup result for Ab236C (antibody, human IgG1, V domains shown) VH: QAQLQQSGAELMKPGASVKISCKATGYIFSSYWIEWVKQRPGHGLEWIGEILPGSDFIKYSEKFKGKATFTADTSSNTAYMQLSNLTSEDSAVYYCARPSTVPPDCWGQGTTLTVSA VL: QIVLTQSPAIMSASPGEKVTMTCSASSSVSYMFWYQQKPGSSPRLLIYDTSDLASGVPVRFSGSGSGTSYSLTISRMEAEDAATYYCQQWSNYPYTFGGGTKLEIKR ; measured maximal percent induction of MET degradation in SNU-5 cells: 19
